Tested on: OVCAR-4 ovarian
Assay: NCI tumour cell line growth inhibition, 48 h
observation.type: GI50

> print(dat)
                                   compound  endpoint.result
1  COc1cc(-n2cc(-c3ccccc3)[nH]c2=O)cc(OC)c1OC          17.1 µM
2  CCOC(=O)C(Cc1c[nH]c2cc(N(CCO)CCO)ccc12)(NC(C)=O)C(=O)OCC        > 1000 µM
3  C[C@]12CC[C@@H]3c4ccc(O)cc4CC[C@H]3[C@@H]1CC[C@@H]2NS(=O)(=O)c1ccc(Br)cc1          3.01 µM
4  CO[C@@H]1CCN(c2nccc(Nc3cc4c(C(C)C)ccc(N5CC(CS(C)(=O)=O)[C@H]5C)c4cn3)n2)C[C@@H]1F (stereo not given in full)          2.92 µM
5  O=[N+]([O-])c1cccc(-c2nc(-c3ccc(Cl)cc3Cl)cn2-c2ccccc2)c1          0.58 µM
